# System: A549
# protocol_text: Antiproliferative activity against human A549 cells assessed as cell growth inhibition at 10 uM incubated for 48 hrs by CCK8 assay relative to control
# Assay type: functional
# run_conditions: read-out: GI
Listed here are molecules together with their documented inhibition of growth at 10 µM.
property_label: inhibition of growth at 10 µM

- COc1ccc2c(c1OC)C(=O)O[C@@H]2[C@H]1c2c(c(CC3CCCO3)c3c(c2OC)OCO3)CCN1C(=O)OC(C)(C)C (stereo partly specified): < 5%
- COc1ccc2c(c1OC)C(=O)O[C@@H]2[C@H]1c2c(cc3c(c2OC)OCO3)CCN1C: < 5%
- COc1ccc2c(c1OC)C(=O)O[C@@H]2[C@H]1c2c(c(CC3CN(C(=O)OCc4ccccc4)C3)c3c(c2OC)OCO3)CCN1C(=O)OC(C)(C)C: 57%
- CCCCc1c2c(c(OC)c3c1OCO3)[C@H]([C@H]1OC(=O)c3c1ccc(OC)c3OC)N(C(=O)OC(C)(C)C)CC2: < 5%
- COc1ccc2c(c1OC)C(=O)O[C@@H]2[C@H]1c2c(c(CC3CCN(C(=O)OC(C)(C)C)C3)c3c(c2OC)OCO3)CCN1C(=O)OC(C)(C)C (stereo partly specified): < 5%
- COc1ccc2c(c1OC)C(=O)O[C@@H]2[C@H]1c2c(c(C3CCC(C)(C)CC3)c3c(c2OC)OCO3)CCN1C(=O)OC(C)(C)C: < 5%
